This collection of values is drawn from ChEMBL document CHEMBL1201862.

test system: UO-31; experiment: NCI tumour cell line growth inhibition, 48 h
Calls of active or inactive are those of the source. No stated cut-off is given here; in the data, active = GI50 up to about 1.1 µM and inactive = higher.
Consider the following compounds; for each one, report its GI50.

Here are 6 compounds together with their reported answers.
- compound: "COc1ccc(NC(C)=O)cc1N1C(=O)/C(=C\\c2ccccc2)SC1c1cc(OC)c(OC)c(OC)c1 (centres undefined)"
  GI50: "33.7 µM (inactive)"
- compound: "COc1ccc(CNC(=O)[C@H](Cc2ccc(O)cn2)NC(C)=O)cc1"
  GI50: "> 100 µM (inactive)"
- compound: "Clc1ccc(-c2ccc(-c3nnc(CCc4nnc(-c5ccc(-c6ccc(Cl)cc6)o5)o4)o3)o2)cc1"
  GI50: "> 100 µM (inactive)"
- compound: "C/C=C\\C(CC(=O)NCC(=O)c1c[nH]c2ccccc12)CC(=O)OC (centres undefined)"
  GI50: "> 100 µM (inactive)"
- compound: "Clc1nc(-[n+]2ccc(-c3ccncc3)cc2)nc(Nc2ccccc2)c1Cl"
  GI50: "> 100 µM (inactive)"
- compound: "CCN(C(=S)N[C@H](C(=O)N[C@@H](C)C(=O)OC)C(C)C)c1ccccc1"
  GI50: "60.8 µM (inactive)"

Go through the list and state GI50 for each entry.
1. COc1c(Sc2c(SCSc3cnc4ccccc4c3Sc3cnc4ccccc4c3OC)cnc3ccccc23)cnc2ccccc12
2. CCOC(=O)C(NC(=O)CC)(N1CCN(c2cc3c(cc2F)c(=O)c(C(=O)O)cn3C2CC2)CC1)C(F)(F)F (centres undefined)
3. O=C1/C(=C/c2cccc(Br)c2)CSC/C1=C\c1cccc(Br)c1

Result:
24.7 µM (inactive)
> 100 µM (inactive)
2.04 µM (inactive)

###

system: SNB-19; test: NCI tumour cell line growth inhibition, 48 h
The source made the active and inactive calls. No stated cut-off is given here; in the data, active = GI50 up to about 1.1 µM and inactive = higher.
Consider the following molecules; for each one, report its GI50.

- molecule: "Oc1cc(O)cc(-c2nc3cc(F)ccc3s2)c1"
  target-or-system: "SNB-19"
  GI50: "23.7 µM (inactive)"
- molecule: "Nc1nc(=O)n(C2CC(O)C(CO)O2)c2nc(-c3ccc(-c4ccccc4)cc3)cnc12 (stereo unspecified)"
  target-or-system: "SNB-19"
  GI50: "29 µM (inactive)"
- molecule: "O=c1ccc2ccc(CBr)cc2o1"
  target-or-system: "SNB-19"
  GI50: "12.4 µM (inactive)"
- molecule: "N#Cc1ccccc1OCCOc1ccccc1C#N"
  target-or-system: "SNB-19"
  GI50: "> 100 µM (inactive)"
- molecule: "CC1C=C(OC(=O)c2ccccc2)C(=O)C(n2cc(F)c(=O)[nH]c2=O)O1 (stereo unspecified)"
  target-or-system: "SNB-19"
  GI50: "> 100 µM (inactive)"

Clc1ccc(C2C3COc4ccccc4C3=NN2c2ccccc2)cc1 (stereo unspecified) yielded GI50 of > 46.9 µM (inactive)

###

tested on: IGROV-1; experiment: NCI tumour cell line growth inhibition, 48 h
Active and inactive are the calls of the source. No stated cut-off is given here; in the data, active = GI50 up to about 1.1 µM and inactive = higher.
Choose the fitting class; nothing outside active, inactive is accepted.

Problem: Per the assay record, what outcome was assigned to Cc1cccc(C(C)(C)C)c1NC(=O)CCc1n[nH]c(=S)o1 ?
Result: inactive

Problem: Per the assay record, what outcome was assigned to Nc1nc(Cl)nc2c1ncn2C1CC(O)C(CO)O1 (stereo unspecified) ?
Result: inactive

Problem: Per the assay record, what outcome was assigned to C/C(CC(=O)Nc1ccccc1)=N\NC(N)=S ?
Result: inactive

Problem: Per the assay record, what outcome was assigned to CCN(CCCl)c1cc(CN(C)C)cc(NC(=O)c2cc(C(=O)Nc3cc(CN(C)C)cc(N(CC)CCCl)c3)n(C)n2)c1 ?
Result: active

Problem: Per the assay record, what outcome was assigned to O=c1ccc2ccc(CBr)cc2o1 ?
Result: inactive

Problem: Per the assay record, what outcome was assigned to c1ccc(NCCSc2nc3ccccc3s2)cc1 ?
Result: inactive

Problem: Per the assay record, what outcome was assigned to CSC(C1c2ccccc2N(c2ccc(C)cc2)C2=NC(=O)N(C)C(=O)C21Cl)S(=O)(=O)c1ccc(C)cc1 (stereo unspecified) ?
Result: inactive

Problem: Per the assay record, what outcome was assigned to N#Cc1c(NC(=S)Nc2ccccc2)sc2c1CCCC2 ?
Result: inactive

Problem: Per the assay record, what outcome was assigned to CC(=O)OCC1OC(N2C(c3ccccc3)=CC(c3ccccc3)C(C#N)=C2S)C(OC(C)=O)C(OC(C)=O)C1OC(C)=O (stereo unspecified) ?
Result: inactive

Problem: Per the assay record, what outcome was assigned to CC(C)(CO)CNc1cc(Cl)nc(N)n1 ?
Result: inactive

Problem: Per the assay record, what outcome was assigned to Cc1c(C2Cc3ccccc3N2)c2ccccc2n1C (stereo unspecified) ?
Result: inactive

###

test system: MOLT-4; test: NCI tumour cell line growth inhibition, 48 h
Active and inactive are the calls of the source. Cut-off read from the data, not from the text of the source: active = GI50 up to about 1.1 µM and inactive = higher.
Choose the fitting class; nothing outside class 1 for active, class 0 for inactive is accepted.

Problem: Per the assay record, what outcome was assigned to Cc1cc2c(C)n[nH]c2c(C(=O)O)c1C ?
Result: class 0

###

tested on: NCI-H522; assay: NCI tumour cell line growth inhibition, 48 h
Activity calls are given as the source filed them. No stated cut-off is given here; in the data, active = GI50 up to about 1.1 µM and inactive = higher.
Choose the fitting class; nothing outside t = active, f = inactive is accepted.

- molecule: "COC(=O)c1c2c(cc3c1CC1(Cc4ccccc4C1=O)C3)CCC2 (centres undefined)"
  group: "f"
- molecule: "C/C(=C\\c1ccccc1)C(=O)NCc1ccc(C(=O)NCCc2c[nH]c3ccccc23)cc1"
  group: "f"

Problem: Per the assay record, what outcome was assigned to O=C1C2CC(Cl)C(SSC3CC4C(=O)N(SC(Cl)(Cl)C(Cl)Cl)C(=O)C4CC3Cl)CC2C(=O)N1SC(Cl)(Cl)C(Cl)Cl (centres undefined) ?
Result: t

Problem: Per the assay record, what outcome was assigned to N#Cc1nc(C2OC(COC(=O)c3ccccc3)C(OC(=O)c3ccccc3)C2OC(=O)c2ccccc2)oc1N (centres undefined) ?
Result: f

Problem: Per the assay record, what outcome was assigned to COc1cc(C(=O)NO)ccc1O ?
Result: f

Problem: Per the assay record, what outcome was assigned to COc1cc2c(cc1OC)C1Cc3cc(OC)c(OC)cc3N1CC2 (centres undefined) ?
Result: f

Problem: Per the assay record, what outcome was assigned to CC(C)(C)c1ccc2c(c1)OP1(Oc3c(Cl)cc(Cl)c4cccnc34)(O2)Oc2ccc(C(C)(C)C)cc2O1 ?
Result: f

Problem: Per the assay record, what outcome was assigned to COc1c(Sc2c(SCSc3cnc4ccccc4c3Sc3cnc4ccccc4c3OC)cnc3ccccc23)cnc2ccccc12 ?
Result: f

Problem: Per the assay record, what outcome was assigned to C=CCNC(=S)N1CC(C)C(=O)Nc2ccccc21 (centres undefined) ?
Result: f

###

tested on: 786-0; assay: NCI tumour cell line growth inhibition, 48 h
Activity calls are given as the source filed them. No stated cut-off is given here; in the data, active = GI50 up to about 1.1 µM and inactive = higher.
assay-endpoint: GI50

- molecule: "COc1ccc2c(c1)N(CCC1CCCCN1C)c1ccccc1S2 (stereo not given) [OXYRIDAZINE]"
  GI50: "13.1 µM (inactive)"
- molecule: "c1ccc2c[n+](Cc3ccnc4ccccc34)ccc2c1"
  GI50: "> 100 µM (inactive)"

Go through the list and state GI50 for each entry.
1. Brc1ccc(-c2[nH]c3ccccc3c2/N=N\c2ccccc2)cc1
2. CCOC(=O)COc1ccc2c(C)cc(=O)oc2c1
3. O=C(Cc1nc2ccccc2s1)C(=O)Nc1ccc(Cl)cc1
4. NC(N)NCCCc1cn2c(n1)C1CCCN1C(=O)C2Cc1ccccc1 (stereo not given)

Result:
1: 18.2 µM (inactive); 2: > 100 µM (inactive); 3: > 100 µM (inactive); 4: > 100 µM (inactive)

Go through the list and state GI50 for each entry.
1. CC(=O)c1c(-c2ccccc2)c(-c2ccc(OCCN(C)C)cc2)n2ccccc12
2. CN(C)C1C(O)=C(C(=O)NCN2CCCC2)C(=O)C2(O)C(O)=C3C(=O)c4c(O)cccc4C(C)(O)C3CC12 (stereo not given)
3. CC(C)N1CCN(c2ccc(OCC3COC(Cn4cncn4)(c4ccc(Cl)cc4Cl)O3)cc2)CC1 (stereo not given) [TERCONAZOLE]
4. C[C@]12OC[C@H](c3ccccc3)N1C(=O)C1[C@H]2CC12SCCS2 (stereo not given in full)

Result:
1. 18.3 µM (inactive)
2. > 100 µM (inactive)
3. 4.06 µM (inactive)
4. > 100 µM (inactive)

###

tested on: KM-20L2; assay: NCI tumour cell line growth inhibition, 48 h
Calls of active or inactive are those of the source. Rule as the data show it: active = GI50 up to about 1.1 µM and inactive = higher.
Consider the following compounds; for each one, report its GI50.

Here are 3 compounds together with their reported answers.
- compound: "COCCCNC(=O)CC(=O)NCCCOC"
  GI50: "> 100 µM (inactive)"
- compound: "CC1C=C(OC(=O)c2ccccc2)C(=O)C(n2cc(F)c(=O)[nH]c2=O)O1 (stereo not given)"
  GI50: "94.6 µM (inactive)"
- compound: "COc1ccc(NC(=O)CC2S/C(=N\\c3ccccc3C)NC2=O)c([N+](=O)[O-])c1 (stereo not given)"
  GI50: "> 100 µM (inactive)"

Go through the list and state GI50 for each entry.
1. O=C(CC1(O)C(=O)Nc2c(Cl)ccc(Cl)c21)c1ccc(Cl)cc1 (stereo not given)
2. COc1ccc(C(c2ccccc2C(=O)O)c2ccc(OC)c3ccccc23)c2ccccc12
3. CSC(C1c2ccccc2N(c2ccc(C)cc2)C2=NC(=O)N(C)C(=O)C21Cl)S(=O)(=O)c1ccc(C)cc1 (stereo not given)
4. CC(=O)c1cccc(NC(=O)/C(=N\NC(C)(C)C)c2c(O)c3ccccc3oc2=O)c1
5. CCOC(=O)C(C(=O)Cc1ccccc1)c1ccccc1 (stereo not given)
6. O=C(N/C(=C\c1ccc(/C=C(\NC(=O)c2ccccc2)c2nc3ccccc3[nH]2)cc1)c1nc2ccccc2[nH]1)c1ccccc1
7. O=C1CCC(=O)N2CCCCN12

Result:
["38.1 µM (inactive)", "9.25 µM (inactive)", "21.7 µM (inactive)", "> 100 µM (inactive)", "> 100 µM (inactive)", "> 100 µM (inactive)", "> 100 µM (inactive)"]
